Provenance of the data: PubChem BioAssay (NCI)

Hi there, I'd appreciate the recorded TGI for every entry that follows.
test system: MCF7 breast; assay: NCI tumour cell line growth inhibition, 48 h

SMILES_REPR	STUDY_TARGET	MEASURED_QUANTITY	MEASUREMENT
[N-]=[N+]=Nc1ccccc1C(=O)N1C(=O)c2ccccc2C(=O)N(C(=O)c2ccccc2N=[N+]=[N-])c2ccccc21	MCF7 breast	TGI	> 100 µM
COc1ccc(-c2nc(-c3nc4ccc(OC)cc4[nH]3)c3ccccn23)cc1	MCF7 breast	TGI	> 100 µM

# context switch: different compound, same TGI
Q) Let me know recorded TGI for `Cc1ccc(Nc2n[nH]c(=S)s2)cc1C` , thanks.
A) > 100 µM

---

tested on: HL-60(TB) leukemia; assay: NCI tumour cell line growth inhibition, 48 h
MEASURED_QUANTITY: TGI

A selection of reference data follows.
MOLECULE	MEASUREMENT
CC(C)Cn1cnc2c(NCC(C)O)nc3ccccc3c21 (stereo not drawn)	> 100 µM
C(=C\c1cccs1)/c1cccc(/C=C/c2cccs2)n1	> 100 µM

Q) Give the reported value of TGI for this record: `CCOC(=O)/C(C#N)=C\c1ccc(N(CCC(=O)O)CCC(=O)O)c(I)c1`
A) > 10 µM

---

So I've got a bunch of compounds here, and I need their TGI values.
system: CCRF-CEM leukemia; assay: NCI tumour cell line growth inhibition, 48 h

The examples below pair each entry with its known result.
COMPOUND	MEASUREMENT
CN1CCc2[nH]c3ccccc3c2C1	> 100 µM
Cc1nc2ccccc2n1COC(Cn1ccnc1)c1ccc(Cl)cc1Cl (centres undefined)	> 100 µM
CC(=O)C(=C(c1ccccc1)c1ccccc1)c1ccccc1	> 100 µM

Here is another compound to look at.
Q) Report measured TGI; entry is `COC(=O)c1nc(-c2ccccc2)oc1S(=O)(=O)Cc1ccccc1`
A) 8.41 µM

---

system: HL-60(TB) leukemia; assay: NCI tumour cell line growth inhibition, 48 h; in the data active = GI50 below about 0.43 µM; inactive = the rest
# output must be one of active, inactive

Examples from the recorded data:
MOLECULE	STUDY_TARGET	CATEGORY_LABEL
COc1ccc(-c2cc(=O)[nH]c3c(OC)c4ccccc4c(OC)c23)cc1	HL-60(TB) leukemia	active
O=C1Nc2ccccc2/C1=C/C(=O)c1coc2c1C(=O)c1ccccc1C2=O	HL-60(TB) leukemia	inactive

Q) Kindly provide the recorded test outcome for the following molecule: `COC(=O)c1nc(-c2ccccc2)oc1S(=O)(=O)Cc1ccccc1`
A) inactive

Q) Dear colleague, could you share the recorded outcome for `CC(C)[C@H](N)C(=O)N1CCC[C@H]1B(O)O` when you have a moment?
A) inactive

Q) Which outcome did this test record for the molecule `COc1c(C)c2c(c(O)c1C/C=C(\C)CCC(=O)O)C(=O)OC2` ?
A) inactive

Q) # outcome recorded in this test, key = CC1CCC(NC(=O)N(CCCl)N=O)CC1 (centres undefined)
A) inactive

Q) Assay outcome for `CCN(CC)CCCCNc1c2ccccc2[n+](C)c2c1[nH]c1ccccc12` : what was it?
A) inactive

Q) Short answer needed: outcome of this test for `Cc1nn2c(/C=C3\C(=O)Nc4ccc(Cl)cc43)c(C)nc2s1` ?
A) inactive

Q) What was the test verdict on `COc1cc(C[C@H]2c3cc(OC)c(OC)cc3CCN2C)c(Oc2cc3c(cc2OC)-c2c(OC)c(OC)cc4c2[C@H](C3)N(C)CC4)cc1OC` ?
A) inactive
